- experimental target: factor XIa (Homo sapiens, UniProt P03951)
- Sequence (P03951 388-625): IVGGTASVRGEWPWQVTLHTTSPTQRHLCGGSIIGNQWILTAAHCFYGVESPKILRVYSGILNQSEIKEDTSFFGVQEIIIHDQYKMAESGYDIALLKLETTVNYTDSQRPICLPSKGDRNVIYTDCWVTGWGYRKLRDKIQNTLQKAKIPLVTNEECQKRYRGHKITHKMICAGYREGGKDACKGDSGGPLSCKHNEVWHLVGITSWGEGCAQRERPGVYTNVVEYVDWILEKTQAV
- method summary: enzyme inhibition
measured metric: pKi
Scale note: pKi = -log10(concentration in M).

[Q] Give me measured pKi, please, for this binder: APPI Kunitz domain (protein) VREVCSEQAETGPCRAMISRWYFDVTEGKCAPFFYGGCGGNRNNFDTEEYCMAVCGSA
[A] 9.39
